# TESTED_TARGET: T1, ITGA2-His (UniProt P17301 30-1132, limits assumed)
# T1 construct: Coated on the ELISA plate at 2 ug/mL; whole entry P17301 is named; also called ITGA2 protein; not shown: His tag
# T1 sequence (looked up): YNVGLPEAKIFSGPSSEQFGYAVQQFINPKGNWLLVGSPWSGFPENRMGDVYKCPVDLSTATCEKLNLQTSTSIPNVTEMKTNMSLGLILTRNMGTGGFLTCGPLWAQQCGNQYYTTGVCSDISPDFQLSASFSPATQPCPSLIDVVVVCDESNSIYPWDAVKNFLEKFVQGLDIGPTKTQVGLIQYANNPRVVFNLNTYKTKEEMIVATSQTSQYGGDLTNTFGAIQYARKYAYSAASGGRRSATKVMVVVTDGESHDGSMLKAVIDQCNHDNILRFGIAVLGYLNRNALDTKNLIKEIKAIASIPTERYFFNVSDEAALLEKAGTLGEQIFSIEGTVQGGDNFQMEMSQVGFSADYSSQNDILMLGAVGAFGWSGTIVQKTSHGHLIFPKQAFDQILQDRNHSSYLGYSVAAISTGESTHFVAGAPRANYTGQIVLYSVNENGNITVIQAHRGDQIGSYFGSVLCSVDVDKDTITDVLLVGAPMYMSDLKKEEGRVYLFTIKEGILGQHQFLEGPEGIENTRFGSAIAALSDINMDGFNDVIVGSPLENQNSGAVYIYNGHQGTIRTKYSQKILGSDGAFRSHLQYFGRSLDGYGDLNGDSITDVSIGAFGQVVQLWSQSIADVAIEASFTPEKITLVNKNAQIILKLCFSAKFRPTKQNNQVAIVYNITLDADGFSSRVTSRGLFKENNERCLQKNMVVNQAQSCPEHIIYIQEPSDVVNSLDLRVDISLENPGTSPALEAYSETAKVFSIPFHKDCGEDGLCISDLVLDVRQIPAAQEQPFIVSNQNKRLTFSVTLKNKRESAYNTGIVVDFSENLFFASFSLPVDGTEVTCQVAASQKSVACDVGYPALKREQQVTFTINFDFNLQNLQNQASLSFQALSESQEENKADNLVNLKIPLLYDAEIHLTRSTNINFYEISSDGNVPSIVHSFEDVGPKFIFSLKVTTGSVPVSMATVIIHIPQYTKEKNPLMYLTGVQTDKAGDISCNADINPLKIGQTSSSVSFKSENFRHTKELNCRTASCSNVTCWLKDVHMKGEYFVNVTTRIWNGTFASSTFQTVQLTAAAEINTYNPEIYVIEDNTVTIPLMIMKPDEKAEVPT
# PROTOCOL_DESCRIPTION: ELISA, plate coated with 2 ug/mL ITGA2-His, anti-human IgG-Fc-HRP detection
Here the recorded pEC50 is given for each entry.
# pEC50 = -log10(concentration in molar units)

In: What does the record list as pEC50 for Chimeric mouse antibody FS002-A226 (antibody, human IgG1, kappa, V domains shown, Chimeric) VH: QLQLQQSGAELVRPGASVTLSCKASGYTFTDYEIHWVKQTPVHGLEWIGAIDPETGGTNYNQKFNDKATLTADKSSSTAYMDLRSLTSEDSAVYYCSRSGYYVSNYESYAMDYWGQGTSVTVSS VL: DIKITQSPSSMYASLGERVTITCKASQDIKSYLSWYQQKPGSSPRLLIYDTSNLASGVPVRFSGRGSGTSYSLTISRMEAEDAATYYCQQWSSYPFTFGSGTKLEIKR ?
Out: 10.74

In: What does the record list as pEC50 for Chimeric mouse antibody FS002-A153 (antibody, human IgG1, kappa, V domains shown, Chimeric) VH: QVQLQQSGAELVRPGASVTLSCKASGYTFTDYEMHWVKQTPVHGLEWIGTIDPETGGTTYNQKFNDKATLTADKSSSTAYMDLRSLTSEDSAVYYCSRSGYYVSSYESYAMDYWGQGTSVTVSS VL: DIVMTQSPSSLTVTAGEKVTMSCKSSQSLLNSGNQKNYLTWYQQKPGQPPKLLIYGASTRESGVPDRFTGSGSGTDFTLTISSVQAEDLAVYYCQNDYSYPFTFGSGTKLEIKR ?
Out: 11.10

In: What does the record list as pEC50 for Humanized antibody FS002-A226-H3L4 (antibody, human IgG1, kappa, V domains shown, Humanized IgG1 kappa) VH: QLQLVQSGAEVKKPGASVKVSCKASGYTFTDYEIHWVRQAPGQGLEWIGAIDPETGGTNYNQKFNDRVTLTADTSISTAYMELSRLRSDDTAVYYCSRSGYYVSNYESYAMDYWGQGTTVTVSS VL: DIQLTQSPSSLSASVGDRVTITCRASQDIKSYLSWYQQKPGKAPKLLIYDTSNLASGVPSRFSGSGSGTDFTLTISSLQPEDFATYYCQQWSSYPFTFGGGTKLEIKR ?
Out: 10.64
